ASSAY DETAILS: HepG2 cell viability effects, profiling panel, calcein-AM fluorescence, 48 h, basal (AID 1164); also: test concentration not given here
REPORTED CONDITIONS: higher = more signal
Kind request: treat -0.6 as inclusive, so z-score at -0.6 or higher is criterion met, anything lower is criterion not met.

COMPOUND	CLASS NAME
C#C[C@@H](CC)O[Si](C#Cc1ccc(Oc2ccccc2)cc1)(C(C)C)C(C)C	criterion not met
O=C1C2=CC[C@H]3C(=O)N(Cc4ccc5c(c4)OCO5)C(=O)[C@H]3[C@H]2[C@H](O)[C@@H]2O[C@H]12	criterion met
COC(=O)[C@@H]1N=C(c2ccc(OCCCO)cc2)O[C@@H]1c1ccccc1N=[N+]=[N-]	criterion met
[N-]=[N+]=NCc1ccccc1C[C@]1(C(=O)NCc2ccccc2)N=C(c2ccc(OCCCO)cc2)O[C@H]1c1ccccc1N=[N+]=[N-]	criterion not met
CO[C@H]1COC(=O)CC=C[C@H](C)[C@@H](NS(=O)(=O)c2ccc(C)cc2)COC(=O)CC=C[C@@H]1C	criterion met
COc1ccc(COC(=O)NN=C2C[C@@H](O)[C@@H](O)[C@@H]3[C@@H]4C(=O)N(c5ccc(F)cc5F)C(=O)[C@@H]4CC[C@@H]23)cc1	criterion not met
C=CC[C@@H]1C=C[C@H](ON=C(C)CCN2CCc3nc(CC)c(CC)cc3C2)[C@@H](CO)O1	criterion not met
CO[C@@H]1COC(=O)[C@@H]2CCCN2C(=O)[C@@H](C)COC(=O)[C@H](COCc2ccccc2)NC(=O)CC=C[C@H]1C	criterion not met
CCOC(=O)C1=CCC(c2cc3ccccc3[nH]2)NC1 (stereo unspecified)	criterion met
CO[C@H]1COC(=O)[C@H](C)COC(=O)CC=C[C@@H](C)[C@H](OC)COC(=O)CC=C[C@@H]1C	criterion met
COC(=O)[C@H]1COC(c2ccc(OCCCO)cc2)=N1	criterion met
CC(=O)OC[C@H]1O[C@H](CCON=C(C)CCN2CCc3nc(-c4ccccc4)c(-c4ccccc4)cc3C2)C=C[C@@H]1OC(C)=O	criterion met
CCOC(=O)C1=CC[C@H]2C(=O)N(CC)C(=O)[C@@H]12	criterion not met
CC(C)(C)N1C(=O)[C@H]2[C@H]3[C@H](O)[C@H](O)CC(=NO[C@@H]4O[C@H](CO)[C@@H](O)[C@H](O)[C@H]4O)[C@@H]3CC[C@H]2C1=O	criterion met
COc1cccc([C@H]2Oc3ccc(OC)cc3C(=NOC(C)CN3CCCc4nc(C)c(C)cc43)[C@@H]2O)c1 (stereo partly specified)	criterion met
CC(C)=C1C(=O)C(c2ccccc2)=C2CN3C(=O)N(CCc4ccccc4)C(=O)[C@]3(Cc3ccc(F)cc3)[C@H]21	criterion met

---

ASSAY DETAILS: small-molecule microarray binders of probe aNog, primary screen, biochemical, biotinylated probe, 635/667 nm fluorescence (AID 1115);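 also: probe is biotinylated aNog protein used at 0.15 µg/mL for 1 h at 4 C; z-score combines 667 nm fluorescence of each spot with its signal to noise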
REPORTED CONDITIONS: higher = more signal

COMPOUND	composite z-score
O=C1C[C@@H](O)[C@@H](O)[C@@H]2[C@@H]3C(=O)N(C4CCCCC4)C(=O)[C@@H]3CC[C@H]12	0.0051
CC(C)(C)N1C(=O)[C@H]2[C@H]3[C@H](O)[C@H](O)CC(=NOCc4ccccc4)[C@@H]3CC[C@H]2C1=O	-0.352
O=C1[C@H]2[C@H]3[C@H](O)[C@H](O)CC(=NOC[C@@H](O)COCc4ccco4)[C@H]3CC[C@H]2C(=O)N1C1CCCCC1	-0.402
O=C1[C@H]2[C@H]3[C@H](O)[C@H](O)CC(=NO[C@@H]4O[C@H](CO)[C@@H](O)[C@H](O)[C@H]4O)[C@@H]3CC[C@H]2C(=O)N1c1ccc(F)cc1F	-0.349
CCOC(=O)[C@H](CC(C)C)NC(=O)CCC1CC(OC(=O)NCc2cccc3ccccc23)CC2(CCCC(COC(=O)NCCN3CCOCC3)O2)O1 (stereo not given in full)	-0.261
CC(C)CON=C1[C@H]2CCn3c(=O)n(-c4ccccc4)c(=O)n3[C@H]2[C@H](O)[C@@H]2O[C@H]12	-0.269
C=CCC(OC(C)=O)[C@@H]1[C@@H](N(Cc2cc3ccccc3o2)C(=O)Cc2ccc(F)cc2)c2cc(OCCCO)ccc2N1C(=O)Cc1ccc(OC)cc1 (stereo not given in full)	0.0234
COC(=O)CC=C[C@@H](C)[C@@H](C=NO[C@@H](C)c1cc(-c2c(C)cc(C)cc2C)no1)OC	0.531
CC(=O)OC[C@H]1O[C@H](CC=NOC[C@@H](C)[C@H](OCc2ccccc2)C(C)C)C=C[C@@H]1OC(C)=O	-0.526
CCOC(=O)NN=C1C[C@@H](O)[C@@H](O)[C@@H]2[C@@H]3C(=O)N(CC)C(=O)[C@@H]3CC[C@@H]12	-0.213
COCCOC(=O)N1C(=O)[C@@]2(c3cc(C#CCNC(N)=O)ccc31)[C@H](c1ccc(O)cc1)N1[C@H](c3ccccc3)[C@H](c3ccccc3)OC(=O)[C@H]1[C@@H]2C(=O)N1CCCCCCC1	-0.559
CC(CCN1CCCCc2nc(C)c(C)cc21)=NOC(C)CN1CCCCc2nc(C)c(C)cc21 (stereo not given)	-0.0762
CCCC[C@@H]1C[C@H]1[C@@H](NS(=O)(=O)c1cccc2cccnc12)c1ccc(-c2ccccc2)cc1	1.31
O=C1C[C@@H](O)[C@@H](O)[C@@H]2[C@@H]3C(=O)N(Cc4ccc5c(c4)OCO5)C(=O)[C@@H]3CC[C@@H]12	-0.239
CCOC(=O)CCN1C(=O)[C@H]2[C@H]3[C@H](O)[C@H](O)CC(=O)[C@H]3CC[C@H]2C1=O	-0.201
CCOC(=O)NN=C1C[C@@H](O)[C@@H](O)[C@@H]2[C@@H]3C(=O)N(C4CCCCC4)C(=O)[C@@H]3CC[C@H]12	-0.245
C#CCCCON=C1C[C@@H](O)[C@@H](O)[C@@H]2[C@@H]3C(=O)N(Cc4ccccc4)C(=O)[C@@H]3CC[C@H]12	-0.0245
C[C@@H]1C=CCC(=O)OC[C@H](C)C(=O)OC[C@H]2O[C@H]1C=C[C@H]2O	-0.278
COc1cccc([C@@H]2Oc3ccc(Br)cc3C(=O)[C@H]2O)c1	-0.257
C[C@H](c1ccccc1)N1C(=O)[C@H]2[C@H]3[C@H](O)[C@H](O)CC(=O)[C@@H]3CC[C@H]2C1=O	0.0638
c1ccc(C2NCCc3c2[nH]c2ccccc32)cc1 (stereo not given)	0.183
CCN1C(=O)[C@H]2[C@H]3[C@H](O)[C@H](O)CC(=NOCC=C(C)CCC=C(C)C)[C@H]3CC[C@H]2C1=O	0.161
COc1ccccc1CN1C(=O)c2ccccc2[C@@H](C(=O)NCC(F)(F)F)[C@@H]1c1ccc(CO)cc1	-0.425
Cc1cc2c(c(=O)o1)[C@H](O)[C@H]1O[C@H]1C2=O	-0.359
O=C(NN=C1C[C@@H](O)[C@@H](O)[C@@H]2[C@@H]3C(=O)N(c4cccc(Oc5ccccc5)c4)C(=O)[C@@H]3CC[C@@H]12)OCc1ccccc1	0.0658
CCCNC(=O)[C@@H]1c2ccccc2C(=O)N(c2ccc(C)cn2)[C@H]1c1ccc(CO)cc1	-0.434
COc1ccc(O[C@H]2C=C[C@@H](c3ccccc3)O[C@@H]2COC(=O)CCC(C)=NOC(C)CN2CCCCc3nc(C)c(C)cc32)cc1 (stereo not given in full)	-0.158
COc1ccc(-c2nc3c(c4c2C[C@H](C)OC4)CN(CCC(C)C)CC3)cc1	-0.131
CC(C)[C@@H](OCc1ccccc1)[C@H](C)C=NOC[C@@H](C)[C@H](OCc1ccccc1)C(C)C	-0.132
CCCCCN1CC=CC23O[C@@H]4C=CCOC(=O)[C@@H]4[C@H]2C(=O)N(C(CO)C(C)C)[C@@H]3C1=O (stereo not given in full)	-0.254

---

Quick list: composite z-score per entry.
Test system: Inhibin beta A chain (activin A)
ASSAY DETAILS: INHBA (activin A) binders on microarrays, primary screen, biochemical, small-molecule microarray, 635 nm fluorescence scan (AID 1107);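 also: mouse activin A protein probed at 4.33 µg/mL on printed slides; score merges bound-protein fluorescence near 667 nm with spot signal-to-noise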
REPORTED CONDITIONS: small-molecule microarray binding, higher = more signal

COMPOUND	composite z-score
CC1CC/C=C\[C@H]2OC34C=CCN(C(C)C)C(=O)[C@H]3N(CCCO)C(=O)[C@@H]4C2C(=O)O1 (stereo partly specified)	-0.476
CCN1C(=O)[C@H]2[C@H]3[C@H](O)[C@H](O)CC(=NOCc4ccccc4)[C@H]3CC[C@H]2C1=O	-0.114
CC(CCN1CCCCc2nc(C)c(C)cc21)=NOC(C)CN1CCCc2nc(C)c(C)cc21 (stereo unspecified)	1.5
CCOC(=O)[C@H](Cc1ccccc1)NC(=O)CCC1CC(OC(=O)NCCc2ccc(F)cc2)CC2(CCCC(COC(=O)NCC(c3ccccc3)c3ccccc3)O2)O1 (stereo partly specified)	-0.235
COCCCNC(=O)[C@]1(Cc2ccccc2)N=C(c2ccc(OCCCO)cc2)O[C@@H]1c1ccccc1	0.455
O=C1[C@H]2[C@H]3[C@H](O)[C@H](O)CC(=NOCc4ccccc4)[C@H]3CC[C@H]2C(=O)N1c1ccc(F)cc1F	-0.364
COC(=O)[C@H](C)NC(=O)[C@@H](C)CO	-0.776
O=C1CCCC2OC12C(O)CCc1ccccc1 (stereo unspecified)	0.399
COCCOC(=O)N1C(=O)[C@@]2(c3cc(C#CC4(O)CCCCCC4)ccc31)[C@H](C(=O)N1CCN(c3ncccn3)CC1)[C@H]1C(=O)O[C@H](c3ccccc3)[C@H](c3ccccc3)N1[C@@H]2c1ccc(OCCO)cc1	0.274
C=CC[C@@H]1C=C[C@H](ON=C2c3cc(OC)ccc3O[C@H](c3cccc(OC)c3)[C@H]2O)[C@@H](CO)O1	-0.0002
CCOc1ccc(N2C(=O)/C(=C/C=C/c3ccccc3OC)S(=O)(=O)C2c2cccc([N+](=O)[O-])c2)cc1 (stereo unspecified)	0.61
CC(C)=NOCc1cccc(-c2cc(-c3ccccc3)no2)c1	-0.21
O=C1C2=CC[C@H]3C(=O)N(Cc4ccc5c(c4)OCO5)C(=O)[C@H]3[C@H]2[C@H](O)[C@@H]2O[C@H]12	0.29
COC(=O)[C@@]1(Cc2ccccc2)[C@H]2c3cc(C(=O)N4CCCC4)n(Cc4ccccn4)c3C[C@H]2CN1C(=O)c1ccccc1	0.456
COCCOC(=O)N1C(=O)[C@@]2(c3cc(C#Cc4ccc(OC)cc4)ccc31)[C@H](c1ccc(O)cc1)N1[C@H](c3ccccc3)[C@H](c3ccccc3)OC(=O)[C@H]1[C@@H]2C(N)=O	0.213
CCCNC(=O)OC[C@H]1O[C@H](CCON=C[C@@H](OC)[C@H](C)C=CCC(=O)OC)C=C[C@@H]1Oc1ccc(OC)cc1	0.717
CC(=O)OC[C@H]1O[C@@H](ON=C[C@@H](C)[C@H](OCc2ccccc2)C(C)C)[C@H](OC(C)=O)[C@@H](OC(C)=O)[C@@H]1OC(C)=O	-1.82
COC(=O)[C@H](C)NC(=O)CCC1CC(OC(=O)NCCc2ccc(F)cc2)CC2(CCCC(COC(=O)NCCc3ccc(Cl)cc3)O2)O1 (stereo partly specified)	0.0063
N#Cc1ccc(NN2C(C(O)c3cc(C(F)(F)F)cc(C(F)(F)F)c3)C=CC3C(=O)N(c4ccccc4)C(=O)C32)cc1 (stereo unspecified)	0.733
COc1ccccc1CN1C(=O)c2ccccc2[C@@H](C(=O)NCC(F)(F)F)[C@@H]1c1ccc(CO)cc1	0.218
C#C[C@@H]1Oc2ccccc2S(=O)(=O)N2CCC[C@H]12	0.807
C[C@@H](c1ccccc1)N1C(=O)[C@H]2[C@H]3[C@H](O)[C@H](O)CC(=NNC(=O)OCc4ccccc4)[C@H]3CC[C@H]2C1=O	0.0683
CO[C@@H]1COC(=O)[C@H](C)NC(=O)[C@@H](C)COC(=O)CCC[C@H]1C	-0.0431
CO[C@@H]1COC(=O)CC=C[C@@H](C)[C@H](OC)COC(=O)[C@H](COCc2ccccc2)NC(=O)CC=C[C@H]1C	1.87
[N-]=[N+]=Nc1ccccc1C[C@@]1(C(N)=O)N=C(c2ccc(OCCCO)cc2)O[C@@H]1c1ccccc1	1.34
COc1ccc(COC(=O)NN=C2C[C@@H](O)[C@@H](O)[C@@H]3[C@@H]4C(=O)N(Cc5ccc6c(c5)OCO6)C(=O)[C@@H]4CC[C@@H]23)cc1	0.556
COC(=O)CC=C[C@@H](C)[C@@H](C=NO[C@H](C)c1cn([C@@H]2COC[C@H]2O)nn1)OC	-0.335
CCCC[C@@H]1C[C@H]1[C@@H](NS(=O)(=O)c1cccc2cccnc12)c1ccc(-c2ccccc2)cc1	0.76
CC(CCN1CCCCc2nc(C)c(C)cc21)=NOC(C)CN1CCCCc2nc(C)c(C)cc21 (stereo unspecified)	0.908
CC(=O)OC[C@H]1O[C@H](CCON=C[C@@H](C)[C@H](OCc2ccccc2)C(C)C)C=C[C@@H]1OC(C)=O	-0.0819
COC(=O)C1(C)C=C2C(=C(c3ccccc3)C(=O)C2C)CN1 (stereo unspecified)	1.45
